Entries and their gephE Binding Intensity [norm.] values follow.
# Test system: gephE
# assay-overview: µSPOT peptide microarray binding assay with recombinant gephE
# test-context: µSPOT peptide microarray, GlyRβ full positional scan, recombinant gephE; intensity normalised to wild-type sequence DLRSNDFSIVGSLPR (=1)
Entry rule: numbers only, all in norm..

>>> value_observed("DLRSNRFSIVGSLPR [GlyRβ_Full_Positional_Scan_112]")
0.84
>>> value_observed("DLRDNDFSIVGSLPR [GlyRβ_Full_Positional_Scan_070]")
0.95

Give reported gephE Binding Intensity [norm.] for DLRSNDFSIGGSLPR [GlyRβ_Full_Positional_Scan_182, GlyR β 414-428 variant V423G] (gephE) 0.48

Return reported gephE Binding Intensity [norm.] for target or system gephE, item DLRANDFSIVGSLPR [GlyRβ_Full_Positional_Scan_061] . 0.98

Please report gephE Binding Intensity [norm.] with gephE for item DLRSNFFSIVGSLPR [GlyRβ_Full_Positional_Scan_107] . 0.74

----------
# Test system: gephE
# assay-overview: µSPOT peptide microarray binding assay with recombinant gephE
# test-context: µSPOT peptide microarray, GlyRβ full positional scan, recombinant gephE; intensity normalised to wild-type sequence DLRSNDFSIVGSLPR (=1)
recorded-metric: gephE Binding Intensity [norm.] (norm.)
Kindly provide the numeric value in norm. only, without the unit symbol.

>>> value_observed("DLRSNDFSEVGSLPR [GlyRβ_Full_Positional_Scan_171, GlyR β 414-428 variant I422E]")
0.24

Identify measured gephE Binding Intensity [norm.] obtained with gephE for DLRQNDFSIVGSLPR [GlyRβ_Full_Positional_Scan_080] . 0.89

Print gephE gephE Binding Intensity [norm.] for DRRSNDFSIVGSLPR [GlyRβ_Full_Positional_Scan_032] . 0.9

Check gephE data and give gephE Binding Intensity [norm.] for DLRSNKFSIVGSLPR [GlyRβ_Full_Positional_Scan_114] . 0.8

Given DLRSNYFSIVGSLPR [GlyRβ_Full_Positional_Scan_109] , report its gephE Binding Intensity [norm.] on gephE. 0.82

Given DLRSNDFSIVASLPR [GlyRβ_Full_Positional_Scan_201, GlyR β 414-428 variant G424A] , report its gephE Binding Intensity [norm.] on gephE. 0.34

State gephE Binding Intensity [norm.] on gephE. Entry: DLVSNDFSIVGSLPR [GlyRβ_Full_Positional_Scan_046] 0.94

----------
# Tested on: gephE
# assay-overview: µSPOT peptide microarray binding assay with recombinant gephE
# test-context: µSPOT full positional scan of GlyRβ 15-mer DLRSNDFSIVGSLPR; intensity normalised to wild-type sequence (= 1)
Each record here notes measured gephE Binding Intensity [norm.].
# value in norm.; strip the unit string

>>> value_observed("DLRSNDFSIVNSLPR [GlyRβ_Full_Positional_Scan_219, GlyR β 414-428 variant G424N]")
0.38
>>> value_observed("DLRSNDFSIVGSNPR [GlyRβ_Full_Positional_Scan_259]")
0.9
>>> value_observed("DLRSNDFSIVGWLPR [GlyRβ_Full_Positional_Scan_228]")
0.57

Give the reported gephE Binding Intensity [norm.] for this sequence. DLRSNDFSIVGGLPR [GlyRβ_Full_Positional_Scan_222] 0.75

State, in one line, measured gephE Binding Intensity [norm.] of DLRSNDFSIVGSLPL [GlyRβ_Full_Positional_Scan_284] 1.05
